# System under test: full-length human PRMT8 isoform 1 (Homo sapiens, UniProt Q9NR22)
# Sequence (Q9NR22 whole entry, canonical isoform): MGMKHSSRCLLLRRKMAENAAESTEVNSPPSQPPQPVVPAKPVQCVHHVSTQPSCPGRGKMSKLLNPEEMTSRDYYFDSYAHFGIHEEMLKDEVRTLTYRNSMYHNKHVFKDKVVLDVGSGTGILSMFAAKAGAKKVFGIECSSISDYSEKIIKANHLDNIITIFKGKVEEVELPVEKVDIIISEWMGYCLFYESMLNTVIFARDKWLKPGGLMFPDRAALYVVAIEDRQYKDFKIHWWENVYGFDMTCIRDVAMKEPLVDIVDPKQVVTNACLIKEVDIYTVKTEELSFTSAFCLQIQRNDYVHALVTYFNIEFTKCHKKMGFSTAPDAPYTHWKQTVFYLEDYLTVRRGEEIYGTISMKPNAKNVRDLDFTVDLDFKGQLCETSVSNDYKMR
# Measurement protocol: PRMT8 Biochemical Assay (3H-SAM Flashplate, peptide substrate)
# Condition details: single experiment or average of multiple experiments; read-out: Biochemical IC50 PRMT8
Kindly supply the reported pIC50 values for the records listed here.
// field semantics: pIC50 = negative decimal log of concentration (mol/L)

Note pIC50 for the compound shown: CNCCN(C)Cc1c[nH]nc1[C@H]1CC[C@@H](C(=O)N(C)CCC(C)C)CC1 7.64

// Input: CNCCN(C)Cc1c[nH]nc1[C@H]1CC[C@@H](C(=O)NCCC(C)C)CC1 . Output its pIC50 only. 7.29

# return recorded pIC50 for input CCN(C(=O)CC(C)C)[C@H]1CC[C@H](c2n[nH]cc2CN(C)CCNC)CC1 7.88

Name the recorded pIC50 of the compound listed here: CC(C)c1n[nH]cc1CN(C)CCN 5.02

Determine from records and report pIC50 for CNCCN(C)Cc1c[nH]nc1C1CCC(C)(C)[C@H](C(=O)NCC(C)C)C1 (some centres unmarked) 7.14
